molecular target: MATE1 (Homo sapiens, UniProt Q96FL8); construct: expressed in transfected cells; gift of Dr. Kathy Giacomini, UCSF; experiment: Concentration-dependent uptake of ASP+ in MATE1-expressing HEK293 cells; format: cell-based; conditions: human, HEK293 cells overexpressing MATE1, pH 7.4, MATE1-expressing HEK293, 0–100 μM
Sequence (Q96FL8 whole entry): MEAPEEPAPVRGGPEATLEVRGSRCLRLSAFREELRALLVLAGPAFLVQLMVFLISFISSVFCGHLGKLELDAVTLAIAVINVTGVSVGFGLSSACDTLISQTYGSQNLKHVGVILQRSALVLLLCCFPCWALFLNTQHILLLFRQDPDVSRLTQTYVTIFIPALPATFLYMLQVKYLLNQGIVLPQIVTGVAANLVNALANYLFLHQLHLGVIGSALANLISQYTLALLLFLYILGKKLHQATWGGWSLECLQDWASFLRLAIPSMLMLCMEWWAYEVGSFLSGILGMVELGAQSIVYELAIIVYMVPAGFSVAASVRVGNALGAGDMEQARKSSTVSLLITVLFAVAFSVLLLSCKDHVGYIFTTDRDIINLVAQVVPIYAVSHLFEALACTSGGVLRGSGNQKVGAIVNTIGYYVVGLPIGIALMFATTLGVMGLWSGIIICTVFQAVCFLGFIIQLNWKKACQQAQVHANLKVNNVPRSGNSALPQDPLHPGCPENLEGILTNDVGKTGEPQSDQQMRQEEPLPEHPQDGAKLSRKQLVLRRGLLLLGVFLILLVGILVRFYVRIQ
METRIC NAME: Km at 1 min (µM)
Supply the numeric figure in µM, leaving out any unit text.

Summary for this compound, `CN(C)c1ccc(C=Cc2cc[n+](C)cc2)cc1.[I-]` : Km at 1 min is 8.2

* * *

assay: Bidirectional transcellular flux of ASP+ in control MDCK cells; format: cell-based, canine; settings: dog, ASP+ 25 μM, 120 min, read-out: B-to-A transport relative to A-to-B transport
METRIC NAME: efflux ratio at 120 min, 25 μM

Lab book: efflux ratio at 120 min, 25 μM of `CN(C)c1ccc(C=Cc2cc[n+](C)cc2)cc1.[I-]` noted as 1.7

* * *

molecular target: MATE1 (Homo sapiens, UniProt Q96FL8); construct: gift of Dr. Kathy Giacomini, UCSF; assay: Inhibition of ASP+ uptake in HEK293 cells overexpressing MATE1; conditions: HEK293-MATE1, ASP+ 10 μM, 1 min, 37 °C; Avg ± SE (n = 3)
METRIC NAME: IC50 (µM)
Your answer should be a plain number; it is taken to be in µM.

Reported IC50 for `O=C(O[C@@H]1C[C@@H]2C[C@H]3C[C@H](C1)N2CC3=O)c1c[nH]c2ccccc12` was 27.4

Reported IC50 of `O=C1c2cccc3c2[C@H](CCC3)CN1[C@@H]1CN2CCC1CC2` : 1.6

Reported IC50 for `CN1[C@@H]2CC[C@H]1C[C@@H](OC(=O)c1c[nH]c3ccccc13)C2` was 1.6

The value of IC50 measured for the compound CN1C2CCCC1CC(NC(=O)c1nn(C)c3ccccc13)C2 (stereo not shown) turned out to be 5

* * *

experiment: Bidirectional transcellular flux of ASP+ in control MDCK cells; type: cell-based, canine; details: dog, ASP+ 25 μM, 90 min, read-out: B-to-A transport relative to A-to-B transport
METRIC NAME: efflux ratio at 90 min, 25 μM
Would you mind answering with just the numeric figure?

GET /value?item= `CN(C)c1ccc(C=Cc2cc[n+](C)cc2)cc1.[I-]` &field=efflux ratio at 90 min, 25 μM returns 1.3

* * *

biological target: human OCT2 (Homo sapiens, UniProt O15244); construct: gift of Dr. Kathy Giacomini, UCSF; test: Inhibition of ASP+ uptake in HEK293 cells overexpressing OCT2; details: HEK293-OCT2, ASP+ 10 μM, 1 min, 37 °C; Avg ± SE (n = 3)
Sequence (O15244 whole entry): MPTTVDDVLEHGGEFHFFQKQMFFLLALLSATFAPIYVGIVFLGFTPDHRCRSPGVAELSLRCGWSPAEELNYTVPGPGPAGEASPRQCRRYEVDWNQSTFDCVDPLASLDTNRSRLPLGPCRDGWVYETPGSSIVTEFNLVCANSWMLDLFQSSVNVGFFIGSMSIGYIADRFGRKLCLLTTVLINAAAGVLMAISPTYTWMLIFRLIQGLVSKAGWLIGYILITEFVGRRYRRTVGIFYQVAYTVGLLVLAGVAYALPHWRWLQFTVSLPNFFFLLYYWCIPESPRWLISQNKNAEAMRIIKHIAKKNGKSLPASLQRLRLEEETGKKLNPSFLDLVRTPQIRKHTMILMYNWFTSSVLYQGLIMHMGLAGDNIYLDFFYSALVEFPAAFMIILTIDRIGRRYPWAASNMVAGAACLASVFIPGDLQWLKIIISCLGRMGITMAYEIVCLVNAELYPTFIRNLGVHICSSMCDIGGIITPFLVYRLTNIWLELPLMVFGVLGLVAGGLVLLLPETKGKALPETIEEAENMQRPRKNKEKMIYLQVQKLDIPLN
Record form. Attribute: log10 IC50. Fill in for each entry.
All values: log10 IC50 [µM].

Short answer for `O=C(O[C@@H]1C[C@@H]2C[C@H]3C[C@H](C1)N2CC3=O)c1c[nH]c2ccccc12` : log10 IC50 was 1.93

Note to self: log10 IC50 recorded for `O=C1c2cccc3c2[C@H](CCC3)CN1[C@@H]1CN2CCC1CC2` was 0.34

Notebook: CN1C2CCCC1CC(NC(=O)c1nn(C)c3ccccc13)C2 (centres unmarked) , log10 IC50 read as 0.58

Measured log10 IC50, `CN1[C@@H]2CC[C@H]1C[C@@H](OC(=O)c1c[nH]c3ccccc13)C2` : 1.50

So for `CN/C(=N/CCSCc1nc[nH]c1C)NC#N` , the logged log10 IC50 turned out to be 1.39

Values compiled from paper PMC8234231.
